Recorded log10 of IC50 values for a group of compounds are listed next.
# testedOn: hT2R54 (Homo sapiens, UniProt P59534)
# Construct: expressed in transfected cells; it overexpresses a promiscuous G protein
# Sequence (P59534 1-338): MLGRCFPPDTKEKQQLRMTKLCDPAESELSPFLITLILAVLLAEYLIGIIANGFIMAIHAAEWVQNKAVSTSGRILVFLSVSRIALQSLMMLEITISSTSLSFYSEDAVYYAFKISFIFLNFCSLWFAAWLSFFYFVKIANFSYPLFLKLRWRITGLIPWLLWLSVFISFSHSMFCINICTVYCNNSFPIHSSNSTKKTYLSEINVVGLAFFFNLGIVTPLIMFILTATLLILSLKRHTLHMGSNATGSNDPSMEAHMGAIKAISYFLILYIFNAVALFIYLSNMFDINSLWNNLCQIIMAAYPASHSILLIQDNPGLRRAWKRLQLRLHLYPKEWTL
# assayProtocol: Cell-based assay for measuring hT2R54 inhibition (FLIPR calcium, Fluo4AM, acetaminophen as bitter agonist)
# assayConditions: Table 8; read-out: hT2R54 IC50
# Experimental: Cells stably expressing hT2R54 and a promiscuous G protein were seeded in 384 well plates 24 hours prior to the experiment. […] Baseline was recorded for 10 seconds, then 25 μl of […] was added onto 25 μl of cells and resulting changes in fluorescence were monitored over an additional 3 minutes. […] The ability of a test compound that blocks bitter taste elicited through hT2R54 was measured in this assay, as follows. […]
Form field - Quantity: IC50; Unit: nM; Scale: log10

Measured log10 of IC50, CC(=O)c1cc2c(cc1NC(=O)CC1CCN(C(=O)CC3CCOC3)CC1)OCO2 (centres unmarked) : 2.60

Measured log10 of IC50, CC(=O)c1cc2c(cc1NC(=O)CC1CCCN(C(=O)c3ccncc3)C1)OCO2 (centres unmarked) : 2.23

Measured log10 of IC50, CC(=O)c1cc2c(cc1NC(=O)CC1CCN(C(=O)c3ccncc3)CC1)OCO2 : 2.48

Measured log10 of IC50, CC(=O)c1cc2c(cc1NC(=O)CC1CCN(C(=O)c3ccco3)CC1)OCO2 : 0.78

Measured log10 of IC50, COCC(=O)N1CCC(CC(=O)Nc2cc3c(cc2C(C)=O)OCO3)CC1 : 2.70

Measured log10 of IC50, CC(=O)c1cc2c(cc1NC(=O)CC1CCN(C(=O)Cc3ccccc3O)CC1)OCO2 : 3.04

Measured log10 of IC50, COc1ccc(CC(=O)N2CCC(CC(=O)Nc3cc4c(cc3C(C)=O)OCO4)CC2)cc1 : 3.20

====

# testedOn: hT2R54 (Homo sapiens)
# Construct: expressed in transfected cells; it overexpresses a promiscuous G protein
# assayProtocol: Cell-based assay for measuring hT2R54 inhibition (FLIPR calcium, Fluo4AM, acetaminophen as bitter agonist)
# assayConditions: Table 4; cells stably expressing hT2R54 and a promiscuous G protein; read-out: hT2R54 IC50
Please use t for IC50 under 400 nM and f for everything else, ties included.

INSERT INTO results (compound, testedon, classification) VALUES
  ('CC(=O)c1cc2c(cc1NC(=O)C(C)N1CCN(C(=O)OC(C)(C)C)CC1)OCO2 (stereo not drawn) [compound 431]', 'hT2R54 (Homo sapiens)', 'f'),
  ('CC(=O)c1cc2c(cc1NC(=O)CN(C)C1CCCN(C(=O)OC(C)(C)C)C1)OCO2 (stereo not drawn) [compound 138]', 'hT2R54 (Homo sapiens)', 't');

Now look at this one.
Request: Dear colleague, could you confirm whether IC50 of CC(=O)c1cc2c(cc1NC(=O)CN1CCCCC1)OCO2 [compound 417] falls below 400 nM? Thanks.
Response: f

====

# testedOn: hT2R54 (Homo sapiens, UniProt P59534)
# Construct: expressed in transfected cells; it overexpresses a promiscuous G protein
# assayProtocol: Cell-based assay for measuring hT2R54 inhibition (FLIPR calcium, Fluo4AM, acetaminophen as bitter agonist)
# assayConditions: Table 2; cells stably expressing hT2R54 and a promiscuous G protein; read-out: hT2R54 IC50
pIC50: −log10 of the molar value.
Rule: pIC50 of 7 or more gives Yes; anything lower gives No.

Please review the following examples before continuing.
INSERT INTO results (compound, testedon, classification) VALUES
  ('COc1cc2c(cc1NC(=O)CN1CCN(C(=O)c3n[nH]cc3C)CC1)OCO2 [compound 390]', 'hT2R54 (Homo sapiens, UniProt P59534)', 'No'),
  ('CC(=O)c1cc2c(cc1NC(=O)CN1CCN(C(=O)c3c(C)noc3C)CC1)OCO2 [compound 69]', 'hT2R54 (Homo sapiens, UniProt P59534)', 'Yes'),
  ('CC(=O)c1cc2c(cc1NC(=O)CN1CCN(C(=O)C3CC3)CC1)OCO2 [compound 12]', 'hT2R54 (Homo sapiens, UniProt P59534)', 'Yes'),
  ('CC(=O)c1cc2c(cc1NC(=O)CN1CCN(C(=O)c3cnn[nH]3)CC1)OCCO2 [compound 329]', 'hT2R54 (Homo sapiens, UniProt P59534)', 'Yes'),
  ('CC(=O)c1cc2c(cc1NC(=O)CN1CCN(C(=O)c3c[nH]c(C)n3)CC1)OCCO2 [compound 331]', 'hT2R54 (Homo sapiens, UniProt P59534)', 'No');

Now look at this one.
Request: Does pIC50 meet or surpass 7 for CCCCC(=O)N1CCN(CC(=O)Nc2cc3c(cc2C(C)=O)OCO3)CC1 [compound 10] ?
Response: Yes

====

Recorded pIC50 values for a group of compounds are listed next.
# testedOn: hT2R54 (Homo sapiens, UniProt P59534)
# Construct: expressed in transfected cells; it overexpresses a promiscuous G protein
# Sequence (P59534 1-338): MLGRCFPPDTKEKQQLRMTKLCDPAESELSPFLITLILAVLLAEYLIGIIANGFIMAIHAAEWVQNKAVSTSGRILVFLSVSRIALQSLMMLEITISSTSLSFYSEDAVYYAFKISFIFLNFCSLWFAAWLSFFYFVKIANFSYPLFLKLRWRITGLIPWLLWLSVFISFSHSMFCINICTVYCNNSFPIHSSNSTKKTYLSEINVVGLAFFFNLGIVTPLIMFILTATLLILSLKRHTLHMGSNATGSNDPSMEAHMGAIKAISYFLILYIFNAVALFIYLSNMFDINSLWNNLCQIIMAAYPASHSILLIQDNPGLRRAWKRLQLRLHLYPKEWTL
# assayProtocol: Cell-based assay for measuring hT2R54 inhibition (FLIPR calcium, Fluo4AM, acetaminophen as bitter agonist)
# assayConditions: given in example heading; read-out: IC50
Would you please state pIC50, meaning minus log10 of the concentration in mol/L, as a bare number?

INSERT INTO assay_data (compound, testedon, endpointresult) VALUES
  ('CCOC(=O)C1CN(C(=O)CC(C)C)CCN1CC(=O)Nc1cc2c(cc1C(C)=O)OCO2 (centres unmarked)', 'hT2R54 (Homo sapiens, UniProt P59534)', 7.24);

As a next step, examine the compound that follows.
Measured pIC50, CCOC(=O)C1CN(C(=O)c2ccco2)CCN1CC(=O)Nc1cc2c(cc1C(C)=O)OCO2 (centres unmarked) : 7.80

====

# testedOn: hT2R54 (Homo sapiens, UniProt P59534)
# Construct: expressed in transfected cells; it overexpresses a promiscuous G protein
# Sequence (P59534 1-338): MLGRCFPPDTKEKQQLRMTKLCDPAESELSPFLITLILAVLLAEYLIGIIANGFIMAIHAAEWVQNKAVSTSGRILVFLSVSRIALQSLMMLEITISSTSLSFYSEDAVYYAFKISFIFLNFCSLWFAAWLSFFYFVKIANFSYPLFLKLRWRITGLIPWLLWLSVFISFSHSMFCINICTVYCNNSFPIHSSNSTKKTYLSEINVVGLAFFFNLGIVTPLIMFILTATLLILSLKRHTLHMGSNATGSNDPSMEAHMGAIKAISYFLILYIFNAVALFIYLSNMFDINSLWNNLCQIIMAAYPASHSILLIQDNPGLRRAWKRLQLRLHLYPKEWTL
# assayProtocol: Cell-based assay for measuring hT2R54 inhibition (FLIPR calcium, Fluo4AM, acetaminophen as bitter agonist)
# assayConditions: Table 2; cells stably expressing hT2R54 and a promiscuous G protein; read-out: hT2R54 IC50
# Procedure: Cells stably expressing hT2R54 and a promiscuous G protein were seeded in 384 well plates 24 hours prior to the experiment. […] Baseline was recorded for 10 seconds, then 25 μl of […] was added onto 25 μl of cells and resulting changes in fluorescence were monitored over an additional 3 minutes. […] The ability of a test compound that blocks bitter taste elicited through hT2R54 was measured in this assay, as follows. […]
Recorded IC50 values for a group of compounds are listed next.
Provide the reading as a plain figure in nM.

INSERT INTO results (smilesrepr, measurementunit, endpointresult) VALUES
  ('CC(=O)c1cc2c(cc1NC(=O)CN1CCN(C(=O)c3ccc(Cn4cccn4)o3)CC1)OCO2', 'nM', 6),
  ('CC(=O)c1cc2c(cc1NC(=O)CN1CCN(C(=O)c3cn(C)nc3C)CC1)OCO2', 'nM', 200),
  ('COc1cc2c(cc1NC(=O)CN1CCN(C(=O)c3ccccc3O)CC1)OCO2', 'nM', 440);

As a next step, examine the compound that follows.
Readout IC50 for COc1cc2c(cc1NC(=O)CN1CCN(C(=O)CC(C)C)CC1)OCO2 , test system hT2R54 (Homo sapiens, UniProt P59534), was 490
